- Tested on: 328373-195-R-J1-PDC complex spheroids, viability % test/control
- Protocol description: Anticancer human tumor 328373-195-R-J1-PDC patient-derived head and neck squamous carcinoma cell line growth inhibition [CLK]
- Test settings: second compound 0.0316 µM; first compound 0.1 µM; stronger effect = lower value

>  <Molecule>
CCCS(=O)(=O)Nc1ccc(F)c(C(=O)c2c[nH]c3ncc(-c4ccc(Cl)cc4)cc23)c1F + CN1CCN(c2cc(C(=O)Nc3cc4cc(-c5cnn(C)c5)ccc4cn3)ccn2)CC1

>  <Target or test system>
328373-195-R-J1-PDC complex spheroids, viability % test/control

>  <viability, T/C, %>
91.4

$$$$
>  <Molecule>
CC(=O)O[C@H]1C(=O)[C@@]2(C)[C@H]([C@H](OC(=O)c3ccccc3)[C@]3(O)C[C@H](OC(=O)[C@H](O)[C@@H](NC(=O)c4ccccc4)c4ccccc4)C(C)=C1C3(C)C)[C@]1(OC(C)=O)CO[C@@H]1C[C@@H]2O + CNC(=O)c1ccc(Nc2nc(OC3CCCC3)c3c(-c4ccc5nc(C)oc5c4)c[nH]c3n2)c(OC)c1

>  <Target or test system>
328373-195-R-J1-PDC complex spheroids, viability % test/control

>  <viability, T/C, %>
7.56

$$$$

----------
- Tested on: 328373-195-R-J1-PDC complex spheroids, viability % test/control
- Protocol description: Anticancer human tumor 328373-195-R-J1-PDC cell line growth inhibition [CLK];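 further: spheroids exposed to the agents for 7 days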
- Test settings: second compound 0.0316 µM; first compound 0.1 µM; stronger effect = lower value
viability, T/C by entry:
Endpoint name: viability, T/C (%)

>  <Molecule>
C=CC(=O)N1CCN(c2nc(=O)n(-c3c(C)ccnc3C(C)C)c3nc(-c4c(O)cccc4F)c(F)cc23)C(C)C1 (stereo not given) + CN1CCN(c2cc(C(=O)Nc3cc4cc(-c5cnn(C)c5)ccc4cn3)ccn2)CC1

>  <Target or test system>
328373-195-R-J1-PDC complex spheroids, viability % test/control

>  <Endpoint name>
viability, T/C

>  <Value units>
%

>  <Number>
90.1

$$$$
>  <Molecule>
Cn1ncnc1[C@H]1c2n[nH]c(=O)c3cc(F)cc(c23)N[C@@H]1c1ccc(F)cc1 + CN1CCN(c2cc(C(=O)Nc3cc4cc(-c5cnn(C)c5)ccc4cn3)ccn2)CC1

>  <Target or test system>
328373-195-R-J1-PDC complex spheroids, viability % test/control

>  <Endpoint name>
viability, T/C

>  <Value units>
%

>  <Number>
82.2

$$$$
>  <Molecule>
CC(CO)NC(=O)c1cc(-c2ccc(Cl)cc2)nn(-c2cnn(C)c2)c1=O (stereo not given) + CNC(=O)c1ccc(Nc2nc(OC3CCCC3)c3c(-c4ccc5nc(C)oc5c4)c[nH]c3n2)c(OC)c1

>  <Target or test system>
328373-195-R-J1-PDC complex spheroids, viability % test/control

>  <Endpoint name>
viability, T/C

>  <Value units>
%

>  <Number>
80.8

$$$$
>  <Molecule>
C=CC(=O)N1CCN(c2nc(=O)n(-c3c(C)ccnc3C(C)C)c3nc(-c4c(O)cccc4F)c(F)cc23)C(C)C1 (stereo not given) + CNC(=O)c1ccc(Nc2nc(OC3CCCC3)c3c(-c4ccc5nc(C)oc5c4)c[nH]c3n2)c(OC)c1

>  <Target or test system>
328373-195-R-J1-PDC complex spheroids, viability % test/control

>  <Endpoint name>
viability, T/C

>  <Value units>
%

>  <Number>
59.7

$$$$
>  <Molecule>
COc1c(OCCCN2CCOCC2)ccc2c3n(c(=NC(=O)c4cnc(N)nc4)nc12)CCN3 + CNC(=O)c1ccc(Nc2nc(OC3CCCC3)c3c(-c4ccc5nc(C)oc5c4)c[nH]c3n2)c(OC)c1

>  <Target or test system>
328373-195-R-J1-PDC complex spheroids, viability % test/control

>  <Endpoint name>
viability, T/C

>  <Value units>
%

>  <Number>
60.7

$$$$
